Origin of measurements: paper PMC2997436

- study system: rat α3β4 nAChR (Rattus norvegicus, UniProt P04757+P12392)
- Sequence (P04757 26-499): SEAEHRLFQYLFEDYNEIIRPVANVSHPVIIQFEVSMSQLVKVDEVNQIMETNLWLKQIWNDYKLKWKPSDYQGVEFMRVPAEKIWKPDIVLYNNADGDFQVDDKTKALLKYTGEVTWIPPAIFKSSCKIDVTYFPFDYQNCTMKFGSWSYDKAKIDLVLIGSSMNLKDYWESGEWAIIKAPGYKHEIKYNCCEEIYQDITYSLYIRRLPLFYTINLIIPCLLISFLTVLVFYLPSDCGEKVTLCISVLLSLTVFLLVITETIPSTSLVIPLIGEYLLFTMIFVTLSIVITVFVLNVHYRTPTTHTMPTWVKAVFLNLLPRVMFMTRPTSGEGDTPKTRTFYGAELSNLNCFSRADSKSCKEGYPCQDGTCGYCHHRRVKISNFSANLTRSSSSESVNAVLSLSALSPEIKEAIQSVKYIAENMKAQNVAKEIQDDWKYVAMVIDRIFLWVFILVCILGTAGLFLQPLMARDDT
- Sequence (P12392 22-495 limits assumed): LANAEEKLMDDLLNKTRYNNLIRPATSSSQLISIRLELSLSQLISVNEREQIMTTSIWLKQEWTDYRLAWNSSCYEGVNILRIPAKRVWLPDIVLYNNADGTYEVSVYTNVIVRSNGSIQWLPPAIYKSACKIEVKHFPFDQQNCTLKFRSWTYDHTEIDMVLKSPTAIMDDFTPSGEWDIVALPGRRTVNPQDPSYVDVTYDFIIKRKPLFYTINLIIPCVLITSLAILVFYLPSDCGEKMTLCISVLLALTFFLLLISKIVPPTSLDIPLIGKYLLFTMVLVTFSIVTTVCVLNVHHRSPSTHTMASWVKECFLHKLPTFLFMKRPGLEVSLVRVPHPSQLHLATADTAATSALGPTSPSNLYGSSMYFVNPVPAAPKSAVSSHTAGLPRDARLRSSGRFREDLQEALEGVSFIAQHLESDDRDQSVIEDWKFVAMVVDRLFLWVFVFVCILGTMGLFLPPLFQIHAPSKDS
pKi: −log10 of the molar value.

molecule	pKi
C1=C(c2cccnc2)CC2CC1CN2Cc1ccccc1 (stereo not shown)	6.77

====

- study system: rat α4β2 nAChR (Rattus norvegicus, UniProt P09483+P12390)
- Sequence (P09483 31-630): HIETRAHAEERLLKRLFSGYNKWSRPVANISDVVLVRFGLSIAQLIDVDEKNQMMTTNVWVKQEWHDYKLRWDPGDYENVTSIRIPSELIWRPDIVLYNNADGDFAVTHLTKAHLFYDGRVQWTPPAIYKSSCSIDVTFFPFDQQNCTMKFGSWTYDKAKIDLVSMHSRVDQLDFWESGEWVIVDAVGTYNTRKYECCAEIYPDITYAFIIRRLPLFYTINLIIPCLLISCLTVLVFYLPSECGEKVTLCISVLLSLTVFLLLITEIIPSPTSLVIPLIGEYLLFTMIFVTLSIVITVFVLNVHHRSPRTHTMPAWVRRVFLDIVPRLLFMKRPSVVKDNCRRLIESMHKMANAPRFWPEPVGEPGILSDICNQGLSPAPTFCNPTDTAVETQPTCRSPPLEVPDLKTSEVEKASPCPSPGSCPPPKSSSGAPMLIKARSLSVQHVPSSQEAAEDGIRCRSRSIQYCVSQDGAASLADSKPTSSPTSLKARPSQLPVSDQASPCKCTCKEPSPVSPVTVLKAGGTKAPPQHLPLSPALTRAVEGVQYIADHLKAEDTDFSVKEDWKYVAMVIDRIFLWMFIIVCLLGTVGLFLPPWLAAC
- Sequence (P12390 25-500): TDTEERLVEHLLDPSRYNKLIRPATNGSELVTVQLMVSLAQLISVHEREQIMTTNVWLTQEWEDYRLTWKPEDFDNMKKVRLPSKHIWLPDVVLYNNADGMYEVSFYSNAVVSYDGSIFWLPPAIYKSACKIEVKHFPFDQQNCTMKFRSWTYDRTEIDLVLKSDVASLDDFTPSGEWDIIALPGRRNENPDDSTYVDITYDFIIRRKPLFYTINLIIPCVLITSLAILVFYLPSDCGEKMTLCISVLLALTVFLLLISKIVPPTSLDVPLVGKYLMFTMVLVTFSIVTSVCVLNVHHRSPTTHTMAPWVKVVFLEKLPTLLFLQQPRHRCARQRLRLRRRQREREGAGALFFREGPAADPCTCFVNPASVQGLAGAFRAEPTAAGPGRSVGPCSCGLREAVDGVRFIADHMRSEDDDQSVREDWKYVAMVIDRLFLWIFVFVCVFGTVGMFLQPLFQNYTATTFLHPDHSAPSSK
- conditions: binding affinity (Ki) α4β2

molecule	study system	Ki
C1=C(c2cccnc2)CC2CC1CN2Cc1ccccc1 (stereo not shown) [Compound 10]	rat α4β2 nAChR (Rattus norvegicus, UniProt P09483+P12390)	1.95 nM

====

- study system: α7 nAChR (Rattus norvegicus, UniProt Q05941)
- Sequence (Q05941 23-502): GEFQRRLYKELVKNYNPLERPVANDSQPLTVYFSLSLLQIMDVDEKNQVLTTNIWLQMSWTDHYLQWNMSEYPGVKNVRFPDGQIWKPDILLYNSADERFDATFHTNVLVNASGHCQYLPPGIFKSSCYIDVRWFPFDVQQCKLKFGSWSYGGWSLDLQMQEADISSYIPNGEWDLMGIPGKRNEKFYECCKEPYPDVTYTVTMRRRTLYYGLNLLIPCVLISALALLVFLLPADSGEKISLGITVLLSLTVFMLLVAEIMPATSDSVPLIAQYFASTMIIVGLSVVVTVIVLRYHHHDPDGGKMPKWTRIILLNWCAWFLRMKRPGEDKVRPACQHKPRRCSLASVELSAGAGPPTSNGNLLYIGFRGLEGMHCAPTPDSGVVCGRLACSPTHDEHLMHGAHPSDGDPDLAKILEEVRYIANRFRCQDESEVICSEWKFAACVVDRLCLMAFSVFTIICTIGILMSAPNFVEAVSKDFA
pKi: −log10 of the molar value.
measured metric: pKi

molecule	reported result
C1=C(c2cccnc2)CC2CC1CN2Cc1ccccc1 (stereo not shown) [Compound 10]	6.37
